Data origin: patent US20080108686A1

- Test system: Leptosphaeria nodorum
- run description: Comparative Test 2: activity against leaf blotch on wheat
- Format: in vivo
- condition parameters: protective spray 1 day before inoculation, wheat cultivar Kanzler, assessed after 8 days, untreated 80%
metric name: Infection at LEPTNO P1 at 250 ppm (%)

> print(dat)
                                   compound                            metric.name  quantitative.result
1  Cn1cc(C(=O)Nc2ccccc2-c2ccc(Cl)c(Cl)c2)c(C(F)F)n1  Infection at LEPTNO P1 at 250 ppm (%)                    3
2  Cn1cc(C(=O)Nc2ccccc2-c2ccccc2)c(C(F)F)n1 [reference compound]  Infection at LEPTNO P1 at 250 ppm (%)                   80
3  Cn1cc(C(=O)Nc2ccccc2-c2ccc(Cl)c(F)c2)c(C(F)F)n1  Infection at LEPTNO P1 at 250 ppm (%)                    3

* * *

Item-by-item account of Infection at BOTRCI P1 at 250 ppm (%)
- Tested on: Botrytis cinerea
- run description: Use Example 2a: activity against gray mold on bell pepper leaves, protective application
- Assay type: in vivo
- condition parameters: protective spray 1 day before inoculation, bell pepper seedlings, assessed after 5 days, untreated 90%
metric name: Infection at BOTRCI P1 at 250 ppm (%)

> print(dat)
                                    compound  quantitative.result
 1  Cn1cc(C(=O)Nc2ccccc2-c2ccc(F)c(F)c2)c(C(F)F)n1 [Compound 67.3]                    1
 2  Cn1cc(C(=O)Nc2ccccc2-c2ccc(Cl)c(F)c2)c(C(F)F)n1 [Compound 67.12]                    7
 3  Cn1cc(C(=O)Nc2ccccc2-c2ccc(F)c(Cl)c2)c(C(F)F)n1 [Compound 67.2]                    0
 4  Cn1cc(C(=O)Nc2ccccc2-c2cc(F)ccc2F)c(C(F)F)n1 [Compound 67.6]                   10
 5  Cc1cc(-c2ccccc2NC(=O)c2cn(C)nc2C(F)F)ccc1Cl [Compound 67.9]                    0
 6  Cn1cc(C(=O)Nc2ccccc2-c2cc(Cl)cc(Cl)c2)c(C(F)F)n1 [Compound 67.1]                    1
 7  Cc1cc(Cl)ccc1-c1ccccc1NC(=O)c1cn(C)nc1C(F)F [Compound 67.8]                    0
 8  Cc1cc(-c2ccccc2NC(=O)c2cn(C)nc2C(F)F)ccc1F [Compound 67.11]                    0
 9  Cc1cc(F)ccc1-c1ccccc1NC(=O)c1cn(C)nc1C(F)F [Compound 67.10]                    0
10  Cn1cc(C(=O)Nc2ccccc2-c2ccc(Cl)c(Cl)c2)c(C(F)F)n1 [Compound 67.4]                    0

* * *

Infection at LEPTNO P1 at 250 ppm (%) listing for selected compounds.
- System: Leptosphaeria nodorum
- run description: Comparative Test 2: activity against leaf blotch on wheat
- Format: in vivo
- condition parameters: protective spray 1 day before inoculation, wheat cultivar Kanzler, assessed after 8 days, untreated 80%
metric name: Infection at LEPTNO P1 at 250 ppm (%)

> print(dat)
                                   compound                            metric.name  units.of.measure  quantitative.result
1  Cn1cc(C(=O)Nc2ccccc2-c2ccc(Cl)cc2Cl)c(C(F)F)n1 [Compound 67.5]  Infection at LEPTNO P1 at 250 ppm (%)                 %                   15
2  Cn1cc(C(=O)Nc2ccccc2-c2ccc(F)c(F)c2)c(C(F)F)n1 [Compound 67.3]  Infection at LEPTNO P1 at 250 ppm (%)                 %                    7
3  Cn1cc(C(=O)Nc2ccccc2-c2ccc(Cl)cc2F)c(C(F)F)n1 [Compound 67.7]  Infection at LEPTNO P1 at 250 ppm (%)                 %                    0
4  COc1ccc(-c2ccccc2NC(=O)c2cn(C)nc2C(F)F)c(C)c1 [Compound 67.14]  Infection at LEPTNO P1 at 250 ppm (%)                 %                    5
5  Cn1cc(C(=O)Nc2ccccc2-c2ccc(F)c(Cl)c2)c(C(F)F)n1 [Compound 67.2]  Infection at LEPTNO P1 at 250 ppm (%)                 %                    3
6  Cc1cc(F)ccc1-c1ccccc1NC(=O)c1cn(C)nc1C(F)F [Compound 67.10]  Infection at LEPTNO P1 at 250 ppm (%)                 %                   15
7  Cn1cc(C(=O)Nc2ccccc2-c2ccc(F)cc2F)c(C(F)F)n1 [Compound 67.13]  Infection at LEPTNO P1 at 250 ppm (%)                 %                    3
8  Cn1cc(C(=O)Nc2ccccc2-c2cc(F)ccc2F)c(C(F)F)n1 [Compound 67.6]  Infection at LEPTNO P1 at 250 ppm (%)                 %                    3
9  Cn1cc(C(=O)Nc2ccccc2-c2cc(Cl)cc(Cl)c2)c(C(F)F)n1 [Compound 67.1]  Infection at LEPTNO P1 at 250 ppm (%)                 %                   25
